Cited source: patent US20250120967A1

target system: NTRK1 (TRKA) (Homo sapiens, UniProt P04629)
Sequence (P04629 33-796): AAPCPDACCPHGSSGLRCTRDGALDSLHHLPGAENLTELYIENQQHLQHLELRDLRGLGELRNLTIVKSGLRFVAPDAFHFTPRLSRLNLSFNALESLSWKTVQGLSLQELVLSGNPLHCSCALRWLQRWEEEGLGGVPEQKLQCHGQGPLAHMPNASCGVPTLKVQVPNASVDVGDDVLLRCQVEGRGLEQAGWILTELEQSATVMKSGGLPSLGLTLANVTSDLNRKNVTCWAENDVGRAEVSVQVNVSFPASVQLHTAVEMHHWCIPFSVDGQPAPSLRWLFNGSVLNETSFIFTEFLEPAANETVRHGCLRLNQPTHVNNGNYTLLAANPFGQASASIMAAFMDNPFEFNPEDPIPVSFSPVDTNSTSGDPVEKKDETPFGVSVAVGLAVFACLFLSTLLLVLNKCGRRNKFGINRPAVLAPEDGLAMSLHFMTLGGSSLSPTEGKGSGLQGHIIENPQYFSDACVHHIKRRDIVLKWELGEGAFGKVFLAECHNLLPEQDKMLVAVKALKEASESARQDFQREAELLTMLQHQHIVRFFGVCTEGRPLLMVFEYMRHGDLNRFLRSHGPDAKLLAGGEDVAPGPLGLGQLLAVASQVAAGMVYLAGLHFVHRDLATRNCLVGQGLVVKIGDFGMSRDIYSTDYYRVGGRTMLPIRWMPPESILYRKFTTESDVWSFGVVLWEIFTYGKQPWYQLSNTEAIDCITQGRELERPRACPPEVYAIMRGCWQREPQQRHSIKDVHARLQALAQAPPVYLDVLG
assay info: Tyrosine kinase inhibition assay
Assay type: biochemical
experimental conditions: single concentration 1.0 μM, read-out: percent inhibition
Method: Tyrosine kinase inhibition assays were performed at ThermoFisher Life Technologies (Madison, WI, USA) using standard protocols (SelectScreen Biochemical Profiling Service, Thermo Fisher Scientific). ATP concentrations used were at the apparent Km. […] The apparent ATP Km was previously determined using a Z′-LYTE assay. […] The inhibition activities of compounds were determined in biochemical assays using single concentration (1.0 μM) measurements. […]
reported metric: inhibition at 1 µM (%)
Give a bare numeral; the unit % is implied.

In the examples that follow, each entry is paired with its recorded inhibition at 1 µM.
>>> meas_value("COc1cc2nccc(Oc3ccc(NC(=O)C4(NC(=O)c5ccc(F)cc5)CC4)cc3F)c2cc1OC")
58
>>> meas_value("COc1cc2nccc(Oc3ccc(NC(=O)C4(C(=O)Nc5ccc(F)cc5)CC4)cc3)c2cc1OC [Cabozantinib, reference compound]")
98
>>> meas_value("COc1cc2nccc(Oc3ccc(NC(=O)C4(C(=O)Nc5ccc(F)cc5)CC4)cc3F)c2cc1Oc1ccc(N)cc1F")
97

## Task Enter reported inhibition at 1 µM observed with NTRK1 (TRKA) (Homo sapiens, UniProt P04629) for `COc1cc2nccc(Oc3ccc(NC(=O)C4(NC(=O)c5ccc(F)cc5)CC4)cc3F)c2cc1Oc1ccc(N)cc1F`
## Result 80

## Task Also, `COc1cc2nccc(Oc3ccc(NC(=O)C4(NC(=O)c5ccc(F)cc5)CC4)cc3F)c2cc1Oc1c(F)cc(N)cc1F` please.
## Result 71
